experimental-details: Solubility of midodrine hydrochloride in various solvents and pH values
Type: physicochemical
assay-setup: potassium phosphate buffer, pH 7.5, aqueous buffer
recorded-metric: solubility

The recorded solubility for COc1ccc(OC)c(C(O)CNC(=O)CN)c1.Cl (stereo not shown) [Midodrine Hydrochloride] is > 10000 µg/mL

###

experimental-details: Solubility of midodrine hydrochloride in various solvents and pH values
Format: physicochemical
assay-setup: potassium phosphate buffer, pH 7.2, aqueous buffer
recorded-metric: solubility

Documented solubility of COc1ccc(OC)c(C(O)CNC(=O)CN)c1.Cl (stereo not shown) [Midodrine Hydrochloride] : > 10000 µg/mL

###

experimental-details: Solubility of midodrine hydrochloride in various solvents and pH values
Format: physicochemical
assay-setup: potassium phosphate buffer, pH 2.5, aqueous buffer
recorded-metric: solubility

Consider COc1ccc(OC)c(C(O)CNC(=O)CN)c1.Cl (stereo not shown) [Midodrine Hydrochloride] . Its measured solubility is > 10000 µg/mL

###

experimental-details: Solubility of midodrine hydrochloride in various solvents and pH values
Format: physicochemical
assay-setup: aqueous buffer; Potassium Phosphate Buffer, pH 6.0
recorded-metric: solubility

Entry COc1ccc(OC)c(C(O)CNC(=O)CN)c1.Cl (stereo not shown) [Midodrine Hydrochloride] ; solubility = > 10000 µg/mL

###

experimental-details: Solubility of midodrine hydrochloride in various solvents and pH values
Format: physicochemical
assay-setup: Simulated Gastric Fluid (SGF) pH 1.25
recorded-metric: solubility

Item: COc1ccc(OC)c(C(O)CNC(=O)CN)c1.Cl (stereo not shown) [Midodrine Hydrochloride] | solubility: > 10000 µg/mL

###

experimental-details: Solubility of midodrine hydrochloride in various solvents and pH values
Format: physicochemical
assay-setup: potassium phosphate buffer, pH 4.5, aqueous buffer
recorded-metric: solubility

Documented solubility of COc1ccc(OC)c(C(O)CNC(=O)CN)c1.Cl (stereo not shown) [Midodrine Hydrochloride] : > 10000 µg/mL

###

experimental-details: Solubility of midodrine hydrochloride in various solvents and pH values
Assay type: physicochemical
assay-setup: potassium phosphate buffer, pH 6.8, aqueous buffer
recorded-metric: solubility

Data point: COc1ccc(OC)c(C(O)CNC(=O)CN)c1.Cl (stereo not shown) [Midodrine Hydrochloride] ; solubility = > 10000 µg/mL

###

experimental-details: Solubility of midodrine hydrochloride in various solvents and pH values
Type: physicochemical
assay-setup: potassium phosphate buffer, pH 5.5, aqueous buffer
recorded-metric: solubility

Value of solubility reported for the compound COc1ccc(OC)c(C(O)CNC(=O)CN)c1.Cl (stereo not shown) [Midodrine Hydrochloride] is > 10000 µg/mL

###

experimental-details: Solubility of midodrine hydrochloride in various solvents and pH values
Assay type: physicochemical
assay-setup: water
recorded-metric: solubility

Looking up COc1ccc(OC)c(C(O)CNC(=O)CN)c1.Cl (stereo not shown) [Midodrine Hydrochloride] , I see its solubility listed as > 10000 µg/mL

Hello, the source for this data is patent US11013702B2, in case you need it.
